Quick reference: inhibition of the listed items.
Species: Sus scrofa
Test: Displacement of [3H]-(+)-MK 801 from PCP binding site of NMDA receptor in pig brain cortex membranes at 10 uM after 120 mins by solid scintillation counting
Type: cell membranes
Give the number; % is assumed, so skip it.

The reported inhibition of the molecule "COC(=O)N1CCN(C(=O)Cc2ccc(Cl)cc2)[C@@H]2[C@@H](N3CC[C@H](O)C3)CCC[C@@H]21" was 7

Field inhibition (entry "CS(=O)(=O)N1CCN(C(=O)Cc2ccc(F)c(Cl)c2)[C@@H]2[C@@H](N3CC[C@H](O)C3)CCC[C@@H]21" ) reads 6

Lab note: "COC(=O)N1CCN(C(=O)Cc2ccc(F)c(Cl)c2)[C@@H]2[C@@H](N3CC[C@H](O)C3)CCC[C@@H]21" gave inhibition of 13

Sample "CS(=O)(=O)N1CCN(C(=O)Cc2ccc(Cl)c(Cl)c2)[C@@H]2[C@@H](N3CC[C@H](O)C3)CCC[C@@H]21" ; inhibition observed: 0

Notebook: "COC(=O)N1CCN(C(=O)Cc2ccc(Cl)c(Cl)c2)[C@@H]2[C@@H](N3CC[C@@H](O)C3)CCC[C@@H]21" , inhibition read as 55

Value of inhibition reported for the molecule "COC(=O)N1CCN(C(=O)Cc2ccc(F)c(F)c2)[C@@H]2[C@@H](N3CC[C@H](O)C3)CCC[C@@H]21" is 11

get_value(item= "CS(=O)(=O)N1CCN(C(=O)Cc2ccc(Cl)c(F)c2)[C@@H]2[C@@H](N3CC[C@H](O)C3)CCC[C@@H]21" , readout=inhibition) returns 16

* * *

Test: Lipophilicity, logD of the compound at pH 7.4 by LC/MS analysis
Type: physicochemical
Settings: buffer
Recorded Metric: logD
Give only the figure.

Example compounds with recorded logD:
COC(=O)N1CCN(C(=O)Cc2ccc(F)c(F)c2)[C@@H]2[C@@H](N3CC[C@H](O)C3)CCC[C@@H]21 : 0.77
CNC(=O)C(=O)N1CCN(C(=O)Cc2ccc(Cl)c(Cl)c2)[C@@H]2[C@@H](N3CCCC3)CCC[C@@H]21 : 1.71
COC(=O)CN1CCN(C(=O)Cc2ccc(Cl)c(Cl)c2)[C@@H]2[C@@H](N3CCCC3)CCC[C@@H]21 : 1.64
O=C(Cc1ccc(Cl)c(F)c1)N1CCN(S(=O)(=O)Cc2ccon2)[C@H]2CCC[C@H](N3CC[C@H](O)C3)[C@H]21 : 1.4

Now consider the entry below.
Lab note: measured logD of "CS(=O)(=O)N1CCN(C(=O)Cc2ccc(Cl)c(Cl)c2)[C@@H]2[C@@H](N3CC[C@H](O)C3)CCC[C@@H]21" was 2.41

* * *

Target: Sigma non-opioid intracellular receptor 1 (Cavia porcellus) (UniProt Q60492)
Sequence (Q60492 whole entry): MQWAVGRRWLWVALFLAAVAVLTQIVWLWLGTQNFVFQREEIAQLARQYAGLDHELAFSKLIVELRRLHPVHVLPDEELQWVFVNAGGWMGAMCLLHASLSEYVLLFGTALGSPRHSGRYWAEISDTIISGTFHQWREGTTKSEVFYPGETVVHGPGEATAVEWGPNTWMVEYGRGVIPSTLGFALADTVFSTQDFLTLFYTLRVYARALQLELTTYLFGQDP
Assay: Displacement of [3H]-(+)-pentazocine from sigma1-type […] receptor in guinea pig cortex membranes at 1 uM after 120 mins by solid scintillation counting
Assay type: cell membranes
Recorded Metric: inhibition (%)
Express the result in % but write the number alone.

Guide cases for inhibition, answers given:
CS(=O)(=O)N1CCN(C(=O)Cc2ccc(Cl)c(Cl)c2)[C@@H]2[C@@H](N3CC[C@H](O)C3)CCC[C@@H]21 : 0
CS(=O)(=O)N1CCN(C(=O)Cc2ccc(Cl)c(Cl)c2)[C@@H]2[C@@H](N3CCCC3)CCC[C@@H]21 : 0

Known value: Sigma non-opioid intracellular receptor 1 (Cavia porcellus) (UniProt Q60492) inhibition of the compound "COC(=O)CN1CCN(C(=O)Cc2ccc(Cl)c(Cl)c2)[C@@H]2[C@@H](N3CCCC3)CCC[C@@H]21" equals 0

Case "O=C(Cc1ccc(Cl)cc1)N1CCN(S(=O)(=O)Cc2ccon2)[C@H]2CCC[C@H](N3CC[C@H](O)C3)[C@H]21" , Sigma non-opioid intracellular receptor 1 (Cavia porcellus) (UniProt Q60492), inhibition recorded as 24
